target: Cathepsin D (Homo sapiens); experiment: Inhibition of cathepsin D (unknown origin) at 10 uM
Sequence (P07339 65-162 limits assumed): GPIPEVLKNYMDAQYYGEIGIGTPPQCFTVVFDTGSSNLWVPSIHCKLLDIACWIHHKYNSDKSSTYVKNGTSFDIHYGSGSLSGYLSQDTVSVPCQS
Sequence (P07339 169-412 limits assumed): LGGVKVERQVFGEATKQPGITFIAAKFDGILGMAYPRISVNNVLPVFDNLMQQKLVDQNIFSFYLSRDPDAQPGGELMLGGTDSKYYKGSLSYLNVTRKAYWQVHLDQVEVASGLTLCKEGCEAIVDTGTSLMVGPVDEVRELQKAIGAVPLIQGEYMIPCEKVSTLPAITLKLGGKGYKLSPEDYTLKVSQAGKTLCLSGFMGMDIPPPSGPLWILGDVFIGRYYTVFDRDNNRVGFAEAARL
RECORDED ENDPOINT: inhibition (%)

> print(dat)
                           structure.smiles  recorded.endpoint  quantitative.result
1  CC(C)c1ccc(C(=O)O[C@H]2CN(C(=O)OC(C)(C)C)C[C@@H]2Nc2nc3cc(F)ccc3[nH]2)cc1         inhibition                  1.4
2  CC(C)(C)OC(=O)N1C[C@H](Nc2nc3cc(F)ccc3[nH]2)[C@@H](OCc2ccc(-c3ccccc3)cc2)C1         inhibition                  5.7
3  Cc1ccc2[nH]c(N[C@H]3CNC[C@@H]3OC(=O)c3ccc(-c4ccccc4)cc3)nc2c1         inhibition                  4.5
4  Cc1ccc2[nH]c(N[C@H]3CN(C(=O)c4ccccc4)C[C@@H]3OC(=O)c3ccc(-c4ccccc4)cc3)nc2c1         inhibition                  4.2
5  CC(C)(C)OC(=O)N1C[C@H](Nc2nc3cc(F)ccc3[nH]2)[C@@H](OC(=O)c2ccc(-c3ccccc3)cc2)C1         inhibition                  1.1

* * *

pIC50 overview
Target: Beta-secretase 2 (Homo sapiens, UniProt Q9Y5Z0)
Sequence (Q9Y5Z0 whole entry): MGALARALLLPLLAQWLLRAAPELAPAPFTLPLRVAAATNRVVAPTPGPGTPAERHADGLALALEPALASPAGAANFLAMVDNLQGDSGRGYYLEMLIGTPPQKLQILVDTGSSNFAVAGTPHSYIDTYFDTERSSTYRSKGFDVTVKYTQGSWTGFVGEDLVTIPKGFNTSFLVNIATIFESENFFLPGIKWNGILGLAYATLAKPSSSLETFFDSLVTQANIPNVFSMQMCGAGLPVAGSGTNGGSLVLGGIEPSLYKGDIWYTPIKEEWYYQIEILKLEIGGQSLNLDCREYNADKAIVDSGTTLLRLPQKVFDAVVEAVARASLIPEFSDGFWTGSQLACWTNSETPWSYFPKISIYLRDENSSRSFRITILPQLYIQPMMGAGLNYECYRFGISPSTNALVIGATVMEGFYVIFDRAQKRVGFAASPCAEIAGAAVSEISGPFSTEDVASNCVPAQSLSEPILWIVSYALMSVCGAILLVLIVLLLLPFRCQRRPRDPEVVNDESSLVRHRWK
pIC50: −log10 of the molar value.
RECORDED ENDPOINT: pIC50

> print(dat)
                           structure.smiles  quantitative.result
1  Cc1ccc2[nH]c(N[C@H]3CNC[C@@H]3OC(=O)c3ccc(-c4ccccc4)cc3)nc2c1                 5.37
2  CC(C)(C)OC(=O)N1C[C@H](Nc2nc3cc(F)ccc3[nH]2)[C@@H](OC(=O)c2ccc(-c3ccccc3)cc2)C1                 5.00
3  CC(C)c1ccc(C(=O)O[C@H]2CN(C(=O)OC(C)(C)C)C[C@@H]2Nc2nc3cc(F)ccc3[nH]2)cc1                 5.36
4  Cc1ccc2[nH]c(N[C@H]3CN(C(=O)c4ccccc4)C[C@@H]3OC(=O)c3ccc(-c4ccccc4)cc3)nc2c1                 5.24

* * *

Listed here: items and their measured pIC50.
biological target: Beta-secretase 1 (Homo sapiens, UniProt P56817); test: Inhibition of BACE1 (unknown origin) by FRET assay
Sequence (P56817 whole entry): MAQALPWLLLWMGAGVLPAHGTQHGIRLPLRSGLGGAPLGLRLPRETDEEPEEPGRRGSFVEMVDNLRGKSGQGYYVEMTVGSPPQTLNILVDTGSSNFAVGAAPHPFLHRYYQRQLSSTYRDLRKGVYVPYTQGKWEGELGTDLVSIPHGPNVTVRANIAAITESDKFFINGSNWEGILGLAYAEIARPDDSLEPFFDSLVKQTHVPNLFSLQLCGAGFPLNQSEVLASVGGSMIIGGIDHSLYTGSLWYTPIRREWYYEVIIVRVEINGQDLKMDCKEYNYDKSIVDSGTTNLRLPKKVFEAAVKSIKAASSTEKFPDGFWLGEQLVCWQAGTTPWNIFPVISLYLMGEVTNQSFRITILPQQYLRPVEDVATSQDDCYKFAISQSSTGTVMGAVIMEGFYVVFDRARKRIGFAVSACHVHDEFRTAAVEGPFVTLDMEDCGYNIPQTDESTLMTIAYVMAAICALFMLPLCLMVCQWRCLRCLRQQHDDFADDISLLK
pIC50: −log10 of the molar value.
RECORDED ENDPOINT: pIC50

> print(dat)
                           structure.smiles  relation  quantitative.result
1  CC(C)(C)OC(=O)N1C[C@H](Nc2nc3cc(Cl)ccc3[nH]2)[C@@H](OC(=O)c2ccc(-c3ccccc3)cc2)C1         =                 6.36
2  COc1ccc2[nH]c(N[C@H]3CN(C(=O)OC(C)(C)C)C[C@@H]3OC(=O)c3ccc(-c4ccccc4)cc3)nc2c1         =                 6.35
3  Cc1ccc2[nH]c(N[C@H]3CN(C(=O)OC(C)(C)C)C[C@@H]3OC(=O)c3cccc(-c4ccc(F)cc4)c3)nc2c1         =                 6.72
4  CC(C)c1ccc(CO[C@H]2CN(CCO)C[C@@H]2Nc2nc3cc(F)ccc3[nH]2)cc1         <                 5.30
5  COC(=O)CN1C[C@H](Nc2nc3cc(C)ccc3[nH]2)[C@@H](OC(=O)c2ccc(-c3ccccc3)cc2)C1         =                 6.24
6  CCCS(=O)(=O)N1C[C@H](Nc2nc3cc(F)ccc3[nH]2)[C@@H](OCc2ccc(C(C)C)cc2)C1         =                 6.19

* * *

target: Beta-secretase 1 (Homo sapiens); assay: Inhibition of BACE1 (unknown origin) by FRET assay
RECORDED ENDPOINT: IC50 (nM)

> print(dat)
                            structure.smiles  recorded.endpoint  units.label  relation  quantitative.result
 1  CC(C)c1ccc(CO[C@H]2CNC[C@@H]2Nc2nc3cc(F)ccc3[nH]2)cc1               IC50           nM         >                 5000
 2  Cc1ccc2[nH]c(N[C@H]3CN(C(=O)c4ccccc4)C[C@@H]3OC(=O)c3ccc(-c4ccccc4)cc3)nc2c1               IC50           nM         =                  390
 3  CCCS(=O)(=O)N1C[C@H](Nc2nc3cc(F)ccc3[nH]2)[C@@H](OC(=O)c2ccc(N(C)C)cc2)C1               IC50           nM         =                 3150
 4  Cc1ccc2[nH]c(N[C@H]3CNC[C@@H]3OC(=O)c3ccc(-c4ccccc4)cc3)nc2c1               IC50           nM         =                  660
 5  CC(C)c1ccc(C(=O)O[C@H]2CN(C(=O)OC(C)(C)C)C[C@@H]2Nc2nc3cc(F)ccc3[nH]2)cc1               IC50           nM         =                   70
 6  CN(C)c1ccc(C(=O)O[C@H]2CN(C(=O)OC(C)(C)C)C[C@@H]2Nc2nc3cc(F)ccc3[nH]2)cc1               IC50           nM         =                 1350
 7  CC(C)(C)OC(=O)N1C[C@H](Nc2nc3cc(F)ccc3[nH]2)[C@@H](OCc2ccc(-c3ccccc3)cc2)C1               IC50           nM         =                  120
 8  CC(C)c1ccc(C(=O)O[C@H]2CN(S(=O)(=O)c3ccccc3)C[C@@H]2Nc2nc3cc(F)ccc3[nH]2)cc1               IC50           nM         =                  720
 9  CC(=O)N1C[C@H](Nc2nc3cc(C)ccc3[nH]2)[C@@H](OC(=O)c2ccc(-c3ccccc3)cc2)C1               IC50           nM         =                  720
10  Cc1ccc2[nH]c(N[C@H]3CN(C(=O)OC(C)(C)C)C[C@@H]3OC(=O)c3ccc(-c4ccccc4)cc3)nc2c1               IC50           nM         =                  210
11  CC(C)(C)OC(=O)N1C[C@H](Nc2nc3cc(Cl)ccc3[nH]2)[C@@H](OC(=O)c2cccc(Oc3ccccc3)c2)C1               IC50           nM         =                  360
12  CC(C)c1ccc(CO[C@H]2CN(CC(N)=O)C[C@@H]2Nc2nc3cc(F)ccc3[nH]2)cc1               IC50           nM         >                 5000
13  CCCS(=O)(=O)N1C[C@H](Nc2nc3cc(F)ccc3[nH]2)[C@@H](OC(=O)c2ccc(C(C)C)cc2)C1               IC50           nM         =                  670
14  CC(C)(C)OC(=O)N1C[C@H](Nc2nc3cc(F)ccc3[nH]2)[C@@H](OC(=O)c2ccc(-c3ccccc3)cc2)C1               IC50           nM         =                   50
15  CC(C)c1ccc(CO[C@H]2CN(S(=O)(=O)c3ccccc3)C[C@@H]2Nc2nc3cc(F)ccc3[nH]2)cc1               IC50           nM         =                  480
16  CC(C)c1ccc(CO[C@H]2CN(C(=O)OC(C)(C)C)C[C@@H]2Nc2nc3cc(F)ccc3[nH]2)cc1               IC50           nM         =                  730
